System: NCI-H522
Experiment: relative viability (nuclei count vs DMSO), 5 days (fraction); higher = more cells survive
Details: first compound 0.1581 µM
Measured relative viability, listed per entry for reference.
MEASURE: relative viability

compound="COc1cc2nccc(Oc3ccc(NC(=O)Nc4cc(C)on4)c(Cl)c3)c2cc1OC [Tivozanib] + Cc1nc(Nc2ncc(C(=O)Nc3c(C)cccc3Cl)s2)cc(N2CCN(CCO)CC2)n1 [Dasatinib] (partner 0.075 µM)" experimental_target=NCI-H522 observed_value=0.845
compound="COc1cc2nccc(Oc3ccc(NC(=O)Nc4cc(C)on4)c(Cl)c3)c2cc1OC [Tivozanib] + N=C(N)NC(=N)NCCc1ccccc1 [Phenformin] (partner 250 µM)" experimental_target=NCI-H522 observed_value=0.619
compound="Nc1ccn([C@@H]2O[C@H](CO)[C@@H](O)[C@@H]2O)c(=O)n1 [Cytarabine] + Nc1ncn([C@H]2C[C@H](O)[C@@H](CO)O2)c(=O)n1 [Decitabine] (partner 2 µM)" experimental_target=NCI-H522 observed_value=0.484
compound="COc1cc2nccc(Oc3ccc(NC(=O)Nc4cc(C)on4)c(Cl)c3)c2cc1OC [Tivozanib] + CC(=O)c1c(C)c2cnc(Nc3ccc(N4CCNCC4)cn3)nc2n(C2CCCC2)c1=O [Palbociclib] (partner 0.5 µM)" experimental_target=NCI-H522 observed_value=0.894
compound="COc1cc2nccc(Oc3ccc(NC(=O)Nc4cc(C)on4)c(Cl)c3)c2cc1OC [Tivozanib] + O=C(CCCCCCC(=O)Nc1ccccc1)NO [Vorinostat] (partner 1 µM)" experimental_target=NCI-H522 observed_value=0.721
compound="COc1cc2nccc(Oc3ccc(NC(=O)Nc4cc(C)on4)c(Cl)c3)c2cc1OC [Tivozanib] + O=C(c1cc(Cc2n[nH]c(=O)c3ccccc23)ccc1F)N1CCN(C(=O)C2CC2)CC1 [Olaparib] (partner 8 µM)" experimental_target=NCI-H522 observed_value=0.591

Every entry's value here was drawn from the supplement of paper PMC10307832.
